Data origin: PubChem BioAssay (EPA / NIEHS)

Assayed target: Peroxisome proliferator-activated receptor gamma (Homo sapiens) (UniProt P37231)
Sequence (P37231 whole entry, looked up): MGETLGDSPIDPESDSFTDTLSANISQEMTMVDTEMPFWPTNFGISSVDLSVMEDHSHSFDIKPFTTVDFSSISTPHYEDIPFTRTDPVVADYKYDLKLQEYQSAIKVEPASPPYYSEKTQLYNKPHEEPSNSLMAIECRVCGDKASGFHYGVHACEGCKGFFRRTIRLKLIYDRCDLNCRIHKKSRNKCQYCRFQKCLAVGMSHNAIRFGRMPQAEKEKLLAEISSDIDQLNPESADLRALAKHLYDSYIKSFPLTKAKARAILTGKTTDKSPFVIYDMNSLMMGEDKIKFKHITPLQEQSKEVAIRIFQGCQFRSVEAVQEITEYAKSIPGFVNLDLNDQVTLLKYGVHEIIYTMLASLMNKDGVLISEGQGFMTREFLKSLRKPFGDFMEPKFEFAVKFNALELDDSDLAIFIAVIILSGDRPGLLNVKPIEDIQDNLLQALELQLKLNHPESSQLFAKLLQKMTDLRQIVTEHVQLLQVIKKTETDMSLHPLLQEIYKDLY
Test summary: ATG_PPARg_TRANS: Attagene TRANS-FACTORIAL HepG2 Assay for human Peroxisome Proliferator-activated Receptor-gamma (PPARg) (AID 2283007)
Inconclusive results are not listed. Active and inactive are the calls of the source. The calls were made as follows: active = hit-call score of the fitted dose curve at least 0.9, where 1 is the maximum; inconclusive = response in the unintended direction; inactive = score below 0.9.
Tick one outcome: active, inactive

{"columns": ["Compound", "Classification"],
 "data": [
  ["Nc1ncn([C@@H]2O[C@H](CO)[C@@H](O)[C@H]2O)c(=O)n1", "inactive"]
]}

Look up the recorded call for CCOC(=O)Cc1cccc2ccccc12 in this test.
active

Look up the recorded call for Cc1ccc([N+](=O)[O-])cc1S(=O)(=O)O in this test.
inactive

----------
Assayed target: human Retinoid X Receptor beta (RXRb), RXRB (gene 6257)
Test summary: ATG_RXRb_TRANS: Attagene TRANS-FACTORIAL HepG2 Assay for human Retinoid X Receptor beta (RXRb) (AID 2283013)
Records with an inconclusive call do not appear. The source made the active and inactive calls. The calls were made as follows: active = hit-call score of the fitted dose curve at least 0.9, where 1 is the maximum; inconclusive = response in the unintended direction; inactive = score below 0.9.
Tick one outcome: true for active, false for inactive

{"columns": ["Compound", "Classification"],
 "data": [
  ["O=S(=O)(O)c1cc(S(=O)(=O)O)c2ccc3c(S(=O)(=O)O)cc(S(=O)(=O)O)c4ccc1c2c43", "false"]
]}

Look up the recorded call for CC(C)=CCCC(C)C=O (stereo unspecified) in this test.
false

Look up the recorded call for CC(C)CCCC(C)CC=O (stereo unspecified) in this test.
false

Look up the recorded call for Cc1ccc(C2OC[C@@H]3OC(c4ccc(C)cc4)O[C@H]([C@H](O)CO)[C@@H]3O2)cc1 (stereo partly specified) in this test.
false

Look up the recorded call for CCN(Cc1cccc(S(=O)(=O)O)c1)c1ccc(C(=C2C=CC(=[N+](CC)Cc3cccc(S(=O)(=O)[O-])c3)C=C2)c2ccccc2)cc1 in this test.
false

Look up the recorded call for CCCCC(CC)COCC1CO1 (stereo unspecified) in this test.
false

Look up the recorded call for COc1c2ccoc2cc2oc(=O)ccc12 in this test.
false

Look up the recorded call for CCCCCC/C=C\CCCCCCCC(=O)O in this test.
true

Look up the recorded call for CC[C@H]1OC(=O)[C@H](C)[C@@H](O[C@H]2C[C@@](C)(OC)[C@@H](O)[C@H](C)O2)[C@H](C)[C@@H](O[C@@H]2O[C@H](C)C[C@H](N(C)C)[C@H]2O)[C@](C)(O)C[C@@H](C)C(=NOCOCCOC)[C@H](C)[C@@H](O)[C@]1(C)O in this test.
false

Look up the recorded call for CCCCCCC1(C)CCC(=O)O1 (stereo unspecified) in this test.
false

Look up the recorded call for C=C1C2CCC(C2)C1(C)C (stereo unspecified) in this test.
false

Look up the recorded call for CC=CC(F)(F)C(F)(F)C(F)(F)F in this test.
false

Look up the recorded call for N#CCc1ccc(Cl)cc1Cl in this test.
false

Look up the recorded call for O=P(O)(O)Oc1ccccc1 in this test.
false

Look up the recorded call for O=C(Nc1ccccc1)c1ccccc1O in this test.
false

Look up the recorded call for C=C(C)CCO in this test.
true

Look up the recorded call for O=C1C=CC(=O)O1 in this test.
false

Look up the recorded call for CC(C)(C)C1CCCCC1=O (stereo unspecified) in this test.
true

Look up the recorded call for CC(C)c1ccc2cc(C(C)C)ccc2c1 in this test.
true

----------
Assayed target: Bile acid receptor (Homo sapiens) (UniProt Q96RI1)
Sequence (Q96RI1 whole entry, looked up): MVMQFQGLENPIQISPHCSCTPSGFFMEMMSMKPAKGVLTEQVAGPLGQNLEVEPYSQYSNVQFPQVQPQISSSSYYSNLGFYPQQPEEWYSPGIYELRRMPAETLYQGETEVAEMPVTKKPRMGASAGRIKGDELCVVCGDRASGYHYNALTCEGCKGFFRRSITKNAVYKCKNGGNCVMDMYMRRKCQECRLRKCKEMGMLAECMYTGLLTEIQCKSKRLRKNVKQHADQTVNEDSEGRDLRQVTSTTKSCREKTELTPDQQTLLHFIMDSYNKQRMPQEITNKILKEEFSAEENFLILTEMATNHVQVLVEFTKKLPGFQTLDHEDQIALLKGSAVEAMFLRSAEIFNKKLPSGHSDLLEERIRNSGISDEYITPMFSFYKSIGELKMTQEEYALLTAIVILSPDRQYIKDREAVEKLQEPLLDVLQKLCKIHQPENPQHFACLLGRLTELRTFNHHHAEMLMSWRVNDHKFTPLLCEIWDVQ
Test summary: OT_FXR_FXRSRC1_0480: Odyssey Thera (OT) 8-hour HEK293T Protein-Complementation Assay for Farnesoid X receptor/SRC-1 Co-activator (AID 2283383)
Results filed as inconclusive are left out. Calls of active or inactive are those of the source. Rule for the calls: active = hit-call score of the fitted dose curve at least 0.9, where 1 is the maximum; inconclusive = response in the unintended direction; inactive = score below 0.9.
Tick one outcome: 1 (active), -1 (inactive)

These recorded examples may help you get a feel for the data.
{"columns": ["Line notation", "Classification"],
 "data": [
  ["CC(C)(C)c1ccc(OC(=O)c2ccccc2O)cc1", 1],
  ["c1ccc2c(c1)ccc1cc3c(ccc4ccccc43)cc12", -1],
  ["CCCCCCCCO[C@@H]1O[C@H](CO)[C@@H](O)[C@H](O)[C@H]1O", -1],
  ["CCCCCCCC/C=C\\CCCCCCCC(=O)O", -1],
  ["CCCCOCCOC(=O)COc1nc(Cl)c(Cl)cc1Cl", -1],
  ["NC(=O)c1ccccc1O", -1],
  ["CC/C=C\\C/C=C\\C/C=C\\CCCCCCCC(=O)O", -1],
  ["CC(C)c1ccc2c(C(C)C)cc(C(C)C)c(S(=O)(=O)O)c2c1", -1]
]}

Look up the recorded call for O=C(C(Cl)Cl)N1CCOC12CCCCC2 in this test.
-1

----------
Assayed target: Cellular tumor antigen p53 (Homo sapiens) (UniProt P04637)
Sequence (P04637 whole entry, looked up): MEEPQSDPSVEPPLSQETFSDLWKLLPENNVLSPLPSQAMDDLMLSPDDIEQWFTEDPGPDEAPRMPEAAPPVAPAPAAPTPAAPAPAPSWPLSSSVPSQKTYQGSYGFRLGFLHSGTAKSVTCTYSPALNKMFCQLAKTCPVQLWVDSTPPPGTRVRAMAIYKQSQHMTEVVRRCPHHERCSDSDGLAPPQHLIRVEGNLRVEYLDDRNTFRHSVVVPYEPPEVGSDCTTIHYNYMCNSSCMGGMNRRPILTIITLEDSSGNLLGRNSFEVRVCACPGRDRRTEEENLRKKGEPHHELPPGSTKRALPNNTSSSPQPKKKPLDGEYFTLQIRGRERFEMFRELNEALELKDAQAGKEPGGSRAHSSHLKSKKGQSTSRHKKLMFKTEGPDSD
Test summary: ATG_p53_CIS: Attagene CIS-FACTORIAL HepG2 Assay for human p53 Transcription Factor (AID 2282994)
Condition label: HepG2 p53 cis-element reporter, Attagene mRNA; actives raise or lower the signal
Active and inactive are the calls of the source. Rule for the calls: active = hit-call score of the fitted dose curve at least 0.9, where 1 is the maximum; inactive = score below 0.9.
Tick one outcome: active, inactive

{"columns": ["Compound", "Classification"],
 "data": [
  ["CCCCCCCCCCc1ccccc1", "inactive"],
  ["CC=CC(F)(F)C(F)(F)C(F)(F)F", "inactive"],
  ["[Cl][In]([Cl])[Cl]", "inactive"],
  ["CC(C)(C)C(=O)C=Cc1ccc(Cl)cc1", "active"]
]}

Please look at the following compound next.
Look up the recorded call for C=C[Si](OC(C)=O)(OC(C)=O)OC(C)=O in this test.
inactive

----------
Test summary: ATG_VDRE_CIS: Attagene CIS-FACTORIAL HepG2 Assay for human Vitamin D Receptor Element (VDRE) (AID 2282968)
Condition label: HepG2 VDRE cis-reporter transcription, actives raise or lower the signal
Activity calls are given as the source filed them. The calls were made as follows: active = hit-call score of the fitted dose curve at least 0.9, where 1 is the maximum; inactive = score below 0.9.
Tick one outcome: 1 for active, 0 for inactive

{"columns": ["Compound", "Classification"],
 "data": [
  ["CCCCCCOc1cc(C)c(O)c(C)c1C", 1],
  ["CCCCCCCCc1ccc(Nc2ccc(CCCCCCCC)cc2)cc1", 1],
  ["CC(=O)OCCC1CCCCC1", 0],
  ["[Cl][Bi]([Cl])([c]1ccccc1)([c]1ccccc1)[c]1ccccc1", 0],
  ["C#CC1(O)CC[C@H]2[C@@H]3CCC4=CCCC[C@@H]4[C@H]3CC[C@@]21C (some centres not stated)", 0]
]}

Look up the recorded call for O=C(Cl)c1cc(C(=O)Cl)cc(C(=O)Cl)c1 in this test.
1

Look up the recorded call for CC/C=C\CCOC(=O)CCCCC in this test.
0

Look up the recorded call for O=C1OC(=O)c2cc(Oc3ccc4c(c3)C(=O)OC4=O)ccc21 in this test.
0

Look up the recorded call for CCOC(F)(F)C(F)(F)C(F)(F)C(F)(F)F in this test.
0

Look up the recorded call for CCCCCCCCCCC=CC#N in this test.
0

----------
Assayed target: human Phosphoinositide 3-kinase alpha (PI3Ka), PIK3CA (gene 5290)
Test summary: NVS_ENZ_hPI3Ka: NovaScreen (NVS) Enzymatic Assay for human Phosphoinositide 3-kinase alpha (PI3Ka) (AID 2283196)
Results filed as inconclusive are left out. Calls of active or inactive are those of the source. Rule for the calls: active = hit-call score of the fitted dose curve at least 0.9, where 1 is the maximum; inconclusive = response in the unintended direction; inactive = score below 0.9.
Tick one outcome: YES = active, NO = inactive

These recorded examples may help you get a feel for the data.
{"columns": ["Line notation", "Classification"],
 "data": [
  ["Cc1cc(C)c(C)c(C)c1", "NO"],
  ["CNC(=S)N(C)C", "NO"]
]}

Look up the recorded call for CCCCCCCCCCCCCCCC[N+](C)(C)CC in this test.
YES

Look up the recorded call for CCCOC(=O)CCCCC(=O)OCCC in this test.
YES

----------
Assayed target: Transcriptional activator Myb (Homo sapiens) (UniProt P10242)
Sequence (P10242 whole entry, looked up): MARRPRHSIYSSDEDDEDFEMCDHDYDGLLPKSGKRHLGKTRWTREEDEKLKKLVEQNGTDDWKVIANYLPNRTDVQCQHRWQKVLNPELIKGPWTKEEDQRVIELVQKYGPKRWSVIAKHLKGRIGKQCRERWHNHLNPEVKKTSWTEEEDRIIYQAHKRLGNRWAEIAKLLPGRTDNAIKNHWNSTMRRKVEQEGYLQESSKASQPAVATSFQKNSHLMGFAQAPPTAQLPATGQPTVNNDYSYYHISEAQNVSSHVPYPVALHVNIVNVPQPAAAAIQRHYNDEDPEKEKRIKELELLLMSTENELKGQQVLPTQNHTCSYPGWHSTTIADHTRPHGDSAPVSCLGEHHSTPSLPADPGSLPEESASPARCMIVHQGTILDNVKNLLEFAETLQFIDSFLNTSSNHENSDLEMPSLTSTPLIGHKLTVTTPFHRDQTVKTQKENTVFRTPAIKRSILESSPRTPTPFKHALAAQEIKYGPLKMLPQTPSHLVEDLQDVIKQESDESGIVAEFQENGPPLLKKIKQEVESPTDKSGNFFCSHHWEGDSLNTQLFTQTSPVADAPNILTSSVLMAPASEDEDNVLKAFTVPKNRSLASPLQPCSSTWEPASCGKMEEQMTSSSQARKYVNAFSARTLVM
Test summary: ATG_Myb_CIS: Attagene CIS-FACTORIAL HepG2 Assay for human Myeloblastosis (Myb) Proto-Oncogene Transcription Factor (AID 2282986)
Condition label: HepG2 Attagene CIS-FACTORIAL Myb reporter transcription; actives raise or lower the signal
Calls of active or inactive are those of the source. How the source made its calls: active means hit-call score of the fitted dose curve at least 0.9, where 1 is the maximum; inactive means score below 0.9.
Tick one outcome: true = active, false = inactive

These recorded examples may help you get a feel for the data.
{"columns": ["Compound", "Classification"],
 "data": [
  ["Cc1ccc(C2OC[C@@H]3OC(c4ccc(C)cc4)O[C@H]([C@H](O)CO)[C@@H]3O2)cc1 (stereo partly drawn)", "false"],
  ["O=C(Nc1ccccc1)c1ccccc1O", "false"],
  ["O=C1CC2CC1C1CCCC21 (stereo not drawn)", "false"],
  ["Cc1oncc1C(=O)Nc1ccc(C(F)(F)F)cc1", "false"],
  ["Cc1ccc(N)c([N+](=O)[O-])c1", "false"],
  ["CC(C)c1ccc(C=O)cc1", "false"],
  ["COC(F)(F)C(F)(C(F)(F)F)C(F)(F)F", "false"],
  ["Cc1cc(=O)n(-c2ccccc2)n1C", "false"]
]}

Look up the recorded call for C=CC(=O)OCCOC1C2CCC1C1CC=CC12 (stereo not drawn) in this test.
false

Look up the recorded call for CCc1nccnc1C in this test.
false

Look up the recorded call for CC(=O)CC(N)=O in this test.
false

Look up the recorded call for FC(F)(F)C(=NOCC1OCCO1)c1ccc(Cl)cc1 in this test.
false

Look up the recorded call for CCCCCCCCCCCCCCCCCC#N in this test.
false

Look up the recorded call for O=C1c2cccc(O)c2C(=O)c2c(O)cc(CO)cc21 in this test.
false

Look up the recorded call for NC(CO)(CO)CO in this test.
false

Look up the recorded call for CC(C)(C)c1n[nH]c(=O)n(N)c1=O in this test.
false

Look up the recorded call for C=CC(=O)OCC(Br)CBr (stereo not drawn) in this test.
false

Look up the recorded call for COC=O in this test.
false

Look up the recorded call for CC(C)c1ccc2cc(C(C)C)ccc2c1 in this test.
false

Look up the recorded call for O=C1Nc2ccccc2C1(c1ccc(O)cc1)c1ccc(O)cc1 in this test.
false

Look up the recorded call for C=CC(=O)OCCOC(=O)C=C in this test.
false

Look up the recorded call for CCOC(=O)CC in this test.
false
